- target or test system: Catechol O-methyltransferase (Rattus norvegicus)
- test: Competitive inhibition of Sprague-Dawley rat liver COMT assessed as inhibition of methyl group transformation from SAM to DL-epinephrine-7-14C after 10 mins by scintillation spectrophotometric analysis
Classify: Condition met when Kis is strictly less than 200 µM; Condition not met when Kis is not.

INSERT INTO assay_data (compound, target_or_test_system, classification) VALUES
  ('Br.CC1(C)CNCc2cc(O)c(O)cc21', 'Catechol O-methyltransferase (Rattus norvegicus)', 'Condition not met'),
  ('Br.CC1CN(C)Cc2cc(O)c(O)cc21 (stereo unspecified)', 'Catechol O-methyltransferase (Rattus norvegicus)', 'Condition met'),
  ('Br.CN1Cc2cc(O)c(O)cc2C(C)(C)C1', 'Catechol O-methyltransferase (Rattus norvegicus)', 'Condition met'),
  ('Br.CN1CCc2cc(O)c(O)cc2C1', 'Catechol O-methyltransferase (Rattus norvegicus)', 'Condition met'),
  ('C[N+]1(C)CCc2cc(O)c(O)cc2C1.[Br-]', 'Catechol O-methyltransferase (Rattus norvegicus)', 'Condition met');

Just for reference, ChEMBL document CHEMBL3271951 is where these values come from.
